assay: Inhibition of pig pancreas soluble alpha-amylase using 4-nitrophenyl-alpha-D-maltopentaoside as substrate after 30 mins by spectrophotometry; parameters: species or system Sus scrofa
Observable: IC50 (µM)
Please give a number only; it is taken to be in µM.

A selection of reference data follows.
{"columns": ["Compound", "IC50 / µM"],
 "data": [
  ["COc1cc(C[C@H](CO[C@@H]2O[C@H](CO)[C@@H](O)[C@H](O)[C@H]2O)[C@@H](CO[C@@H]2O[C@H](CO)[C@@H](O)[C@H](O)[C@H]2O)Cc2ccc(O)c(OC)c2)ccc1O [(+)-SECOISOLARICIRESINOLDIGLUCOSIDE]", 15.7],
  ["O=C1OC[C@@H](Cc2cccc(O)c2)[C@@H]1Cc1cccc(O)c1 [(+)-ENTEROLACTONE]", 10.9],
  ["OC[C@@H](Cc1cccc(O)c1)[C@@H](CO)Cc1cccc(O)c1 [(+)-ENTERODIOL]", 8.6]
]}

Now, please, on to the next compound.
Enquiry: Param item = COc1cc(C[C@@H](CO)[C@H](CO)Cc2ccc(O)c(OC)c2)ccc1O [(+)-SECOISOLARICIRESINOL] ; retrieve measured IC50.
Return: 9.5

###

experiment: […] inhibition of pig pancreas soluble alpha-amylase using 4-nitrophenyl-alpha-D-maltopentaoside as substrate assessed as enzyme-substrate-inhibitor dissociation constant after 30 mins by double reciprocal plot method; design: species or system Sus scrofa
Observable: Ki (µM)
Please give a number only; it is taken to be in µM.

Enquiry: Param item = OC[C@@H](Cc1cccc(O)c1)[C@@H](CO)Cc1cccc(O)c1 [(+)-ENTERODIOL] ; retrieve measured Ki.
Return: 40.3

###

species on record: Rattus norvegicus; test: Inhibition of immobilized rat intestinal alpha-glucosidase using 4-nitrophenyl-alpha-D-glucopyranoside as substrate assessed as enzyme activity after 30 mins by spectrophotometry relative to control; set-up: concentration or dose not given beside the values
Observable: Activity (%)
Please give a number only; it is taken to be in %.

{"columns": ["Compound", "Observable", "Unit annotation", "Result"],
 "data": [
  ["C[C@H]1O[C@H](O[C@H]2[C@H](O)[C@@H](O)[C@@H](O[C@H]3[C@H](O)[C@@H](O)C(O)O[C@@H]3CO)O[C@@H]2CO)[C@H](O)[C@@H](O)[C@@H]1N[C@H]1C=C(CO)[C@@H](O)[C@H](O)[C@H]1O (stereo not given in full)", "Activity", "%", 34.4]
]}

Enquiry: Param item = COc1cc(C[C@H](CO[C@@H]2O[C@H](CO)[C@@H](O)[C@H](O)[C@H]2O)[C@@H](CO[C@@H]2O[C@H](CO)[C@@H](O)[C@H](O)[C@H]2O)Cc2ccc(O)c(OC)c2)ccc1O [(+)-SECOISOLARICIRESINOLDIGLUCOSIDE] ; retrieve measured Activity.
Return: 74.3

Enquiry: Param item = OC[C@@H](Cc1cccc(O)c1)[C@@H](CO)Cc1cccc(O)c1 [(+)-ENTERODIOL] ; retrieve measured Activity.
Return: 69.9

Enquiry: Param item = O=C1OC[C@@H](Cc2cccc(O)c2)[C@@H]1Cc1cccc(O)c1 [(+)-ENTEROLACTONE] ; retrieve measured Activity.
Return: 73.9

Enquiry: Param item = COc1cc(C[C@@H](CO)[C@H](CO)Cc2ccc(O)c(OC)c2)ccc1O [(+)-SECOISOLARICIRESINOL] ; retrieve measured Activity.
Return: 72.4
